molecular target: EGFR mutant L858R Ba/F3 cells (Homo sapiens, UniProt P00533, L858R, cells depend on it); assay: Ba/F3 cell proliferation (Cell Titer Glo), EGFR L858R; assay type: cell-based, murine; details: 72 hours, Table 6, read-out: L858R BaF3
Sequence (P00533 whole entry L858R): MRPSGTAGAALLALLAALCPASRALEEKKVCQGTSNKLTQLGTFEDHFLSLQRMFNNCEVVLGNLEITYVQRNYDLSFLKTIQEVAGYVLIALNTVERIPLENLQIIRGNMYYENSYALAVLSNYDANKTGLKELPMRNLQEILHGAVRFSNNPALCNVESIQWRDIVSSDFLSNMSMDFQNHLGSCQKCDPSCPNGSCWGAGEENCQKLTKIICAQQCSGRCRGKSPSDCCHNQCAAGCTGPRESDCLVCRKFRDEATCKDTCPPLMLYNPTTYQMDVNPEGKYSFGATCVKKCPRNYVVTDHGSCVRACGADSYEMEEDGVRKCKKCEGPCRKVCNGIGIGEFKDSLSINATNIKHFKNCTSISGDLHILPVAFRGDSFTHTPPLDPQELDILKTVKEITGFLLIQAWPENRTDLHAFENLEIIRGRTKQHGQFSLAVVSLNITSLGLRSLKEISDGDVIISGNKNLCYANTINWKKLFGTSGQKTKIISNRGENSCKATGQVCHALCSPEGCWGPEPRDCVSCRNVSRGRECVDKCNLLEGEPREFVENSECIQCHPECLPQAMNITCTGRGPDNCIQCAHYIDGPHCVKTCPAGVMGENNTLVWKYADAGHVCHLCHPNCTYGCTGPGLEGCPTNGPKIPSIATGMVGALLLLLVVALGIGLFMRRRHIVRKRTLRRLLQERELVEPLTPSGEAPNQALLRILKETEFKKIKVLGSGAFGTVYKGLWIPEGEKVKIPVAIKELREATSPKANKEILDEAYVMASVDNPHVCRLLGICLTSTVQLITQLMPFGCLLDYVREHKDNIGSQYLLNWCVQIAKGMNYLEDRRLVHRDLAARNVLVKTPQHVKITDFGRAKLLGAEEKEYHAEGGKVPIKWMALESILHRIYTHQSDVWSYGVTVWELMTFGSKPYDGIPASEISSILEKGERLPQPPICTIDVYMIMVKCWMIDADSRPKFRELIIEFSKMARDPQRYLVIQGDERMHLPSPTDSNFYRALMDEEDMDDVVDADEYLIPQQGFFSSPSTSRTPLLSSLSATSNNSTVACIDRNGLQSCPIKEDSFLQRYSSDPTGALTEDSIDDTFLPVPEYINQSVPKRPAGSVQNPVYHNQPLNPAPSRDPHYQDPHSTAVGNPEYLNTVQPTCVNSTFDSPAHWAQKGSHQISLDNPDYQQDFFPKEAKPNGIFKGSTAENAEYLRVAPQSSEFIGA
MEASURED_PARAMETER: GI50

Example results:
[[record]]
compound = "C=CC(=O)N1CC[C@@H](N2Cc3cnc(Nc4cnn(CCO)c4)nc3N(C)C2=O)c2cccc(OC)c21 (single isomer, unassigned)"
measured = "≥ 2500 nM"

[[record]]
compound = "C=CC(=O)N1CC[C@@H](N2Cc3cnc(Nc4ccc(N5CCN(C)CC5)cc4)nc3N(C)C2=O)c2cccc(C)c21"
measured = "100 to 500 nM"

[[record]]
compound = "[2H]C1(N2Cc3cnc(Nc4ccc(OCCN5CCCC5)cc4)nc3N(C)C2=O)CCN(C(=O)C=C)c2ccccc21 (stereo not shown)"
measured = "< 100 nM"

[[record]]
compound = "C=CC(=O)N1CCC(N2Cc3cnc(Nc4cnn(C)c4)nc3N(C)C2=O)c2ccccc21 (stereo not shown)"
measured = "< 100 nM"

[[record]]
compound = "C=CC(=O)N1CC(N2Cc3cnc(Nc4ccc(N5CCN(C)CC5)cc4)nc3N(C)C2=O)c2ccccc21 (stereo not shown)"
measured = "100 to 500 nM"

[[record]]
compound = "C=CC(=O)N1CCC(N2Cc3cnc(Nc4ccc(N5CCN(C)CC5)nc4)nc3N(C)C2=O)c2ccccc21 (stereo not shown)"
measured = "< 100 nM"


Task: What value of measured GI50 is listed for C/C=C/C(=O)N1CC[C@H](N2Cc3cnc(Nc4ccc(N5CCN(C)CC5)cc4)nc3N(C)C2=O)c2ccccc21 ?
Output: 100 to 500 nM

###

# GI50 per entry
biological target: EGFR mutant L858R Ba/F3 cells (Homo sapiens, UniProt P00533, L858R, cells depend on it); assay: Ba/F3 cell proliferation (Cell Titer Glo), EGFR L858R; type: cell-based, murine; settings: 72 hours, Table 6, read-out: L858R BaF3

Example results:
[[record]]
molecule = "C=CC(=O)N1CC[C@H](N2Cc3cnc(Nc4ccc(N5CCN(C)CC5)cc4)nc3N(CCO)C2=O)c2cccc(C)c21"
measured = "< 0.1 µM"

[[record]]
molecule = "CN1C(=O)N([C@H]2CCN(C(=O)CC#N)c3ccccc32)Cc2cnc(Nc3cnn(CCO)c3)nc21"
measured = "≥ 2.5 µM"

[[record]]
molecule = "C=CC(=O)N1CCC(N2Cc3cnc(Nc4ccc(N(C)CCN(C)C)c(C(F)(F)F)c4)nc3N(C)C2=O)c2ccccc21 (centres unmarked)"
measured = "< 0.1 µM"

[[record]]
molecule = "C=CC(=O)N1CCC(N2Cc3cnc(Nc4ccc(N5CCN(C)CC5)cc4)nc3N(C)C2=O)c2cccc(OC)c21 (single isomer, unassigned) [Compound 124]"
measured = "≥ 2.5 µM"

[[record]]
molecule = "C=CC(=O)N1CCC(N2Cc3cnc(Nc4ccc(N(C)CCN(C)C)cc4)nc3N(C)C2=O)c2ccccc21 (centres unmarked)"
measured = "< 0.1 µM"

[[record]]
molecule = "C=CC(=O)N1CCC(N2Cc3cnc(Nc4ccc(N5CCN(C)C6(CC6)C5)cc4)nc3N(C)C2=O)c2ccccc21 (centres unmarked)"
measured = "< 0.1 µM"

[[record]]
molecule = "C=C(F)C(=O)N1CC[C@@H](N2Cc3cnc(Nc4cnn(CCO)c4)nc3N(C)C2=O)c2cccc(OC)c21 (single isomer, unassigned)"
measured = "≥ 2.5 µM"

[[record]]
molecule = "C=CC(=O)N1CCC(N2Cc3cnc(Nc4ccc(N5CCN(C)CC5)cc4)nc3N(c3cccc(NC(C)=O)c3)C2=O)c2ccccc21 (centres unmarked)"
measured = "0.1 to 0.5 µM"

[[record]]
molecule = "C=CC(=O)N1CCC(N2Cc3cnc(Nc4cccc(OC(F)F)c4)nc3N(C)C2=O)c2ccccc21 (centres unmarked)"
measured = "< 0.1 µM"

[[record]]
molecule = "C=CC(=O)N1CCC(N2Cc3nnc(Nc4ccc(N5CCN(C)CC5)cc4)cc3N(C)C2=O)c2ccccc21 (centres unmarked)"
measured = "≥ 2.5 µM"


Task: What value of measured GI50 is listed for C=CC(=O)N1CCC(N2Cc3cnc(Nc4ccc(CN5CCN(C)CC5)cn4)nc3N(C)C2=O)c2ccccc21 (centres unmarked) ?
Output: < 0.1 µM

Task: C=CC(=O)N1CCC(N2Cc3nnc(Nc4ccc(N5CCN(C)CC5)cn4)cc3N(C)C2=O)c2ccccc21 (centres unmarked) , same question.
Output: ≥ 2.5 µM

Task: C=CC(=O)N1CCC(N2Cc3cnc(Nc4cnn(CCN(C)C)c4)nc3N(C)C2=O)c2ccccc21 (centres unmarked) , same question.
Output: < 0.1 µM

Task: C=CC(=O)N1CCC(N2Cc3cnc(Nc4ccc(N5CCN(C)CC5)cc4)nc3N(C3CCOC3)C2=O)c2ccccc21 (centres unmarked) , same question.
Output: < 0.1 µM
